# Test system: HL-60
# assay.explanation: Cytotoxicity in human HL60 cells assessed as inhibition of cell viability incubated for 72 hrs by CCK-8 assay
# Format: functional, cell-based
# measurement.setup: HL-60, 72 h
quantity.measured: IC50 (µM)

compound	unit.descriptor	recorded.value
Cc1cc(=O)cc2c3c1[C@H](O)[C@@H]1[C@@H]4OC(=O)[C@](CC2)(C(C)C4O)[C@H]31 (stereo partly drawn)	µM	2.2
Cc1cc(=O)cc2c3c1C[C@]1(O)[C@H]4CC(C)[C@@](CC2)(C(=O)O4)[C@]31O (stereo partly drawn)	µM	6.8
Cc1cc(=O)cc2c3c1C[C@H]1[C@@H]3[C@]3(C=C2)C(=O)O[C@@H]1CC3C (stereo partly drawn)	µM	9.8

---

# Tested on: HL-60
# assay.explanation: Cytotoxicity in human HL60 cells assessed as inhibition of cell viability incubated for 72 hrs by CCK-8 assay
# Assay type: functional, cell-based
# measurement.setup: HL-60, 72 h
pIC50: −log10 of the molar value. Where a name gives a salt, the structure may show the parent alone.
Reported pIC50 values for the following compounds.

compound	value.qualifier	pIC50
COc1cccc2c1C(=O)c1c(O)c3c(c(O)c1C2=O)C[C@@](O)(C(=O)CO)C[C@@H]3O[C@H]1C[C@H](N)[C@H](O)[C@H](C)O1 [DOXORUBICIN HYDROCHLORIDE]	=	7.12
Cc1cc(=O)cc2c3c1[C@@H](O)[C@H]1[C@@H]3[C@]3(CC2)C(=O)O[C@@H]1CC3C (some centres not stated)	<	4.30
Cc1cc(=O)cc2c3c1[C@H](O)[C@H]1[C@@H]3[C@]3(CC2)C(=O)O[C@@H]1CC3C (some centres not stated)	=	5.46
Cc1cc(=O)cc2c3c1C[C@H]1[C@@H]3[C@]3(C[C@H]2O)C(=O)O[C@@H]1CC3C (some centres not stated)	<	4.30
Cc1cc(=O)cc2c3c1C[C@@H]1[C@@H]4OC(=O)[C@](C[C@H]2O)(C(C)C4O)[C@H]31 (some centres not stated)	=	4.42
Cc1cc(=O)cc2c3c1[C@@H]1OC4C(C)[C@@]5(C[C@H]2O)C(=O)O[C@H]4[C@]1(O)[C@@H]35 (some centres not stated)	=	4.76
